test system: SF-539 CNS; assay: NCI-60 one-dose screen, 48 h (100 = growth as untreated, 0 = no growth, -100 = all killed); conditions: 10 µM unless noted
About 83,000 compounds went through this panel and 20% of them were active in at least one assay; those are over-represented in the sample as a whole. Active and inactive are the calls of the source. Rule for the calls: active = growth percent below 10; inactive = the rest.
observedProperty: growth

Sample answers from the record:
compound | growth
N#C/C(=C\c1ccc(F)cc1)n1nc2cccc(F)c2n1 | 7.78% (active)
Cc1ccc(-c2nc3c(c(-c4ccccc4)nn3-c3ccccc3)c(-c3ccc(O)cc3)c2C#N)cc1 | 15.2% (inactive)
CCOC(=O)c1cn2ncnc(Oc3ccc(NC(=O)NCCN4CCN(C)CC4)c(Cl)c3)c2c1C | 78.5% (inactive)
Cc1cccc2c3c(sc12)C(c1ccc(Cl)cc1)C(C#N)=C(/N=C/c1ccc(Cl)cc1)O3 (stereo not drawn) | -13.7% (active)

IN: // query growth value for entry Cc1ccc(S(=O)(=O)N/N=C/C2(c3ccccc3)CC2)cc1
OUT: 114% (inactive)

IN: Form field: reported growth of O=C(N/N=C/[C@@H](O)[C@H](O)[C@H](O)CO)c1ccc(NC(=O)c2cccnc2)cc1
OUT: 103% (inactive)

IN: // lookup growth for CCOc1cccc(NC2=C(Br)C(=O)C(C)=C(C)C2=O)c1
OUT: 94.9% (inactive)

IN: For the compound CC(=O)CC[C@H]1C(=O)N[C@@H](C(C)C)C(=O)N[C@@H](Cc2cc(O)cc(F)c2)C(=O)N2CCC[C@H](N2)C(=O)O[C@H](/C(C)=C/C=C/C(=O)OC(C)(C)C)C/C=C/C=C/[C@H](O)[C@H](C)[C@H]1O , what growth is on record?
OUT: 66.8% (inactive)

IN: # query: growth of entry NCCNc1nc2ccccc2c2c(=O)c3cccc(F)c3sc12
OUT: 59.2% (inactive)

IN: Report growth for CCCCC1CCCC12NC(=O)NC2=O (stereo not drawn) please.
OUT: 113% (inactive)

IN: Entry under review: COc1nc2ccccc2cc1-c1nc2c(cnn2-c2ccc(Br)cc2)c(=O)[nH]1 . Reported growth?
OUT: -31.7% (active)

* * *

system: M14 melanoma; experiment: NCI-60 one-dose screen, 48 h (100 = growth as untreated, 0 = no growth, -100 = all killed); settings: 10 µM unless noted
This is part of a sample that, as a whole, favours compounds with a hit. Of some 83,000 tested, about 20% had one in any assay.
observedProperty: growth (%)
Give your result in % as a bare value.

Worked set:
molecule | unitText | growth
COc1ccc(-c2[nH]c3ccc(OC)cc3c2/C=C(\C#N)S(=O)(=O)c2ccccc2)cc1 | % | 25.3
NCCOc1ncccc1/C=C1\c2ccccc2-c2ccc(C(F)F)cc21 | % | 64.5

IN: # get_value(readout='growth', item= O=c1c2cc(F)ccc2sc2c(NCCCNCCO)nc3ccc(F)cc3c12 )
OUT: 8.53

IN: # lookup: growth of Brc1c[n+](Cc2ccc3ccccc3c2)cn1Cc1ccc2ccccc2c1
OUT: 1.8

IN: Query: growth; subject: Cc1ccc2nc(NC(=O)CSc3nc(Cl)c(C#N)c(-c4ccccc4)n3)sc2c1
OUT: 97.9

IN: Item under review: CCC12CCC[N+]3([O-])CCC4(C(=Nc5ccccc54)C(O)(C(=O)OC)C1)C23 (stereo unspecified) . Reported growth?
OUT: 96.7
